Listed here are compounds together with their documented morphology score.
Tested on: A549-ACE2 infected with SARS-CoV-2
Assay: morphology score (similarity to uninfected cells); higher = more like uninfected cells
Settings: 3 µM; 24 h
Readout: morphology score

{"Smiles Entry": "CNCC[C@H](Oc1cccc2ccccc12)c1cccs1", "Assayed Target": "A549-ACE2 infected with SARS-CoV-2", "Readout": "morphology score", "Observed Result": 0.1}
{"Smiles Entry": "OCCN1C[C@H](O)[C@@H](O)[C@H](O)[C@H]1CO", "Assayed Target": "A549-ACE2 infected with SARS-CoV-2", "Readout": "morphology score", "Observed Result": 0.01}
{"Smiles Entry": "CCN(CC)CCOc1ccc(/C(=C(\\Cl)c2ccccc2)c2ccccc2)cc1", "Assayed Target": "A549-ACE2 infected with SARS-CoV-2", "Readout": "morphology score", "Observed Result": 0.8}

* * *

System: HepG2
Test: cell viability relative to DMSO; higher = less toxic
Conditions: 72 h; 1 nM

{"Molecule": "CC(=O)c1ccc2c(c1)N(CCCN1CCN(CCO)CC1)c1ccccc1S2", "cell viability": "107%"}
{"Molecule": "CN(C)CC/C=C1/c2ccccc2COc2ccccc21 [doxepin]", "cell viability": "103%"}
{"Molecule": "O=C(Cc1cccc(OC(F)(F)F)c1)Nc1ccc(CCCCc2nnc(NC(=O)Cc3ccccn3)s2)nn1", "cell viability": "96.7%"}
{"Molecule": "O=C(O)Cc1cc2ccccc2nc1C(=O)O", "cell viability": "107%"}
{"Molecule": "c1cnc(N2CCN(Cc3ccc4c(c3)OCO4)CC2)nc1", "cell viability": "98.9%"}
{"Molecule": "CC#C[C@]1(O)CC[C@H]2[C@@H]3CCC4=CC(=O)CCC4=C3[C@@H](c3ccc(N(C)C)cc3)C[C@@]21C", "cell viability": "93.6%"}
{"Molecule": "O=C(O[C@H]1C[C@H]2CC[C@@H](C1)[N+]21CCCC1)C(O)(c1ccccc1)c1ccccc1", "cell viability": "98.3%"}
{"Molecule": "Cc1ncc([N+](=O)[O-])n1CCO", "cell viability": "97.7%"}
{"Molecule": "O=C(Nc1ccccc1)c1ccccc1O [salicylanilide]", "cell viability": "102%"}
{"Molecule": "CC(C)(O)C(Cl)(Cl)Cl", "cell viability": "110%"}
{"Molecule": "Nc1cc(Cl)c(N=C2NCCN2)c(Cl)c1", "cell viability": "96.5%"}
{"Molecule": "Cc1ccc(S(=O)(=O)NC2c3ccccc3Oc3ccccc32)cc1", "cell viability": "96.4%"}
{"Molecule": "O=C1CN(/N=C/c2ccc([N+](=O)[O-])o2)C(=O)N1", "cell viability": "98.4%"}
{"Molecule": "O=C(Nc1cnccc1Cl)N1CCN(Cc2ccc3c(c2)OC(F)(F)O3)CC1", "cell viability": "95.6%"}
{"Molecule": "O=C1Cc2c([nH]c3ccc(Br)cc23)-c2ncccc2N1", "cell viability": "89.6%"}
{"Molecule": "Cn1cnc(-c2cc3nccc(Oc4ccc(NC(=S)NC(=O)Cc5ccccc5)cc4F)c3s2)c1", "cell viability": "103%"}
{"Molecule": "Cc1cc(OCc2nc(-c3ccccc3Cl)cs2)ccc1OCC(=O)O", "cell viability": "104%"}
{"Molecule": "CCOC(=O)CCC(=O)O[C@H]1[C@H](O[C@@H]2[C@@H](C)[C@H](O[C@H]3C[C@@](C)(OC)[C@@H](O)[C@H](C)O3)[C@@H](C)C(=O)O[C@H](CC)[C@@](C)(O)[C@H](O)[C@@H](C)C(=O)[C@H](C)C[C@@]2(C)O)O[C@H](C)C[C@@H]1N(C)C [erythromycin-ethylsuccinate]", "cell viability": "97.8%"}
{"Molecule": "O=C(NCc1ccccc1)OCCO [buramate]", "cell viability": "106%"}
{"Molecule": "Cc1nc2ccccn2c(=O)c1CCN1CCC(C(=O)c2ccc(F)cc2)CC1", "cell viability": "110%"}
{"Molecule": "CC(C)(N)CC12CC3CC(CC(C3)C1)C2", "cell viability": "100%"}
{"Molecule": "CC[C@H](/C=C/[C@@H](C)[C@H]1CC[C@H]2[C@@H]3CC=C4C[C@@H](O)CC[C@]4(C)[C@H]3CC[C@]12C)C(C)C [Stigmasterol (Stigmasterin)]", "cell viability": "103%"}
{"Molecule": "Oc1cc2c(c(Cl)c1O)CCNCC2c1ccccc1 (centres undefined)", "cell viability": "93.2%"}
{"Molecule": "COc1cc2c(cc1OC(C)C)[C@H](c1ccc(Cl)cc1)N(c1ccc(N(C)C[C@H]3CC[C@H](N4CCN(C)C(=O)C4)CC3)cc1)C(=O)C2", "cell viability": "104%"}
{"Molecule": "NC(=O)N/N=C/c1ccc([N+](=O)[O-])o1", "cell viability": "92.5%"}
{"Molecule": "Nc1nc(O)c2nc(Br)n([C@@H]3O[C@@H]4COP(=O)(O)O[C@H]4[C@H]3O)c2n1", "cell viability": "101%"}
{"Molecule": "COC(=O)c1csc(C(=O)c2c[nH]c3ccccc23)n1", "cell viability": "104%"}
{"Molecule": "CC(C)NCCN(C(C)C)S(=O)(=O)c1ccc(Cl)cc1Cl", "cell viability": "99.8%"}
{"Molecule": "O=[N+]([O-])c1ccc2nc(COCc3nc4ccc([N+](=O)[O-])cc4[nH]3)[nH]c2c1", "cell viability": "94.1%"}

* * *

Test system: U2OS
Experiment: cell viability relative to DMSO; higher = less toxic
Settings: 72 h; 10000 nM

{"Molecule": "CCCn1c(=O)c(C)cn2nc(N)nc12", "Assayed Target": "U2OS", "cell viability, %": 101}
{"Molecule": "O=C(CN1CCNCC1)NC1CCCCC1", "Assayed Target": "U2OS", "cell viability, %": 108}
{"Molecule": "CCN1CCC[C@H]1CNC(=O)c1c(OC)ccc(Br)c1OC [remoxipride]", "Assayed Target": "U2OS", "cell viability, %": 95.7}
{"Molecule": "O[C@@H]1[C@H](O)[C@@H](CCl)O[C@H]1n1cnc2c(NC3CC4CCC3C4)ncnc21 (mixture of isomers) [5'-chloro-5'-deoxy-ENBA-(+/-)]", "Assayed Target": "U2OS", "cell viability, %": 97.6}
{"Molecule": "O=C1c2cccc3c2[C@H](CCC3)CN1[C@@H]1CN2CCC1CC2", "Assayed Target": "U2OS", "cell viability, %": 94.2}
{"Molecule": "Cc1ccc(S(=O)(=O)NC2c3ccccc3Oc3ccccc32)cc1", "Assayed Target": "U2OS", "cell viability, %": 100}
{"Molecule": "Cc1cn([C@@H]2C[C@@H](O)[C@H](CO)O2)c(=O)[nH]c1=O", "Assayed Target": "U2OS", "cell viability, %": 105}
{"Molecule": "Cc1ncc([N+](=O)[O-])n1CCO", "Assayed Target": "U2OS", "cell viability, %": 98}
{"Molecule": "NC(=O)N1c2ccccc2CC(O)c2ccccc21 (stereo unspecified) [licarbazepine]", "Assayed Target": "U2OS", "cell viability, %": 102}
{"Molecule": "COc1cc2nccc(Oc3ccc(NC(=O)C4(C(=O)Nc5ccc(F)cc5)CC4)cc3)c2cc1OC [cabozantinib]", "Assayed Target": "U2OS", "cell viability, %": 50.1}
{"Molecule": "CC(C)[C@@H]1C(=O)N(S(C)(=O)=O)[C@@H]2CCN(C(=O)/C=C/CN3CCCCC3)[C@H]21", "Assayed Target": "U2OS", "cell viability, %": 101}

* * *

Tested on: Caco-2
Experiment: drug sensitivity score (DSS) for viability; higher = more toxic; extreme values may be limits of the assay
Conditions: 72 h
Listed here are compounds together with their documented drug sensitivity score.
Readout: drug sensitivity score

{"Compound": "CCCCC/N=c1\\ccn(Cc2ccccc2)c2ccccc12", "Observed Result": 2}
{"Compound": "Cc1nc(N)sc1-c1ccnc(Nc2ccc(N3CCOCC3)cc2)n1", "Observed Result": 1.7}
{"Compound": "C[S+](C)CC[C@H](N)C(=O)O", "Observed Result": 0}
{"Compound": "O=[N+]([O-])c1ccc2nc(COCc3nc4ccc([N+](=O)[O-])cc4[nH]3)[nH]c2c1", "Observed Result": 0}
{"Compound": "CC1(C)C(=O)N(c2ccc(C#N)c(C(F)(F)F)c2)C(=O)N1CCCCO", "Observed Result": 0.4}
{"Compound": "COc1ccc2nc3ccc(Cl)cc3c(SCCCN)c2c1", "Observed Result": 0}
{"Compound": "CN(C)Cc1cccc(N/C(=C2\\C(=O)Nc3cc(C(N)=O)ccc32)c2ccccc2)c1", "Observed Result": 0}
{"Compound": "COC(=O)C1=CO[C@@H](O)[C@@H]2C(CO)=CC[C@H]12", "Observed Result": 0.1}
{"Compound": "CN(C)CCCO[C@@H]1[C@H]2OC(C)(C)O[C@H]2O[C@@H]1[C@H](O)CO", "Observed Result": 0}
{"Compound": "CN1C(C(=O)Nc2ccccn2)=C(O)c2sc(Cl)cc2S1(=O)=O", "Observed Result": 0}
{"Compound": "CC(=O)N[C@@H](Cc1ccc(O)cc1)C(=O)O", "Observed Result": 0}
{"Compound": "CCn1cc(C(=O)O)c(=O)c2cc(F)c(N3CCNCC3)nc21", "Observed Result": 0}
{"Compound": "O=c1[nH]cnc2c1cnn2[C@@H]1O[C@H](CO)[C@@H](O)[C@H]1O [allopurinol-riboside]", "Observed Result": 0}
{"Compound": "Cc1cccc(C)c1NC1=NCCCS1", "Observed Result": 0}
{"Compound": "O=C1c2cccnc2OC[C@@H]2CCCN12", "Observed Result": 0}
{"Compound": "CC(=C(CCOC(=O)C(C)C)SSC(CCOC(=O)C(C)C)=C(C)N(C=O)Cc1cnc(C)nc1N)N(C=O)Cc1cnc(C)nc1N (stereo in doubt)", "Observed Result": 1.2}
{"Compound": "Oc1ccc2[nH]cc(C3=CCNCC3)c2n1", "Observed Result": 0}
{"Compound": "CC#C[C@]1(O)CC[C@H]2[C@@H]3CCC4=CC(=O)CCC4=C3[C@@H](c3ccc(N(C)C)cc3)C[C@@]21C", "Observed Result": 1.2}
{"Compound": "O[C@@H]1[C@H](O)[C@@H](CCl)O[C@H]1n1cnc2c(NC3CC4CCC3C4)ncnc21 (mixture of isomers) [5'-chloro-5'-deoxy-ENBA-(+/-)]", "Observed Result": 0.4}
{"Compound": "CC1(C)CCC[C@]2(C)[C@H]3CC(=O)O[C@]3(C)CC[C@@H]12 [Sclareolide (Norambreinolide)]", "Observed Result": 0}
{"Compound": "Cc1ccc2nc(NCCN)c3ncc(C)n3c2c1", "Observed Result": 1.4}
{"Compound": "Cc1ccc(/C=C2/C(=O)C3(C)CCC2C3(C)C)cc1 (stereo unspecified)", "Observed Result": 0}
{"Compound": "O=C(O)C1=CCCN(CCOC(c2ccc(C(F)(F)F)cc2)c2ccc(C(F)(F)F)cc2)C1", "Observed Result": 0}
{"Compound": "Cc1ccc(-c2csc3ncnc(SCCC(=O)O)c23)cc1", "Observed Result": 0}
{"Compound": "CCOC(=O)c1ncc2[nH]c3ccc(OCc4ccccc4)cc3c2c1COC", "Observed Result": 4.3}
{"Compound": "O=C(Nc1ccccc1)c1ccccc1O [salicylanilide]", "Observed Result": 0}
